The reported numbers originate from PubChem BioAssay AID179.

# Tested on: CEM cells HIV-1 protection, formazan growth assay
# test_summary: NCI AIDS Antiviral Assay
# measurement_parameters: measured here: growth of uninfected CEM cells
# Procedure: The ability of compounds to protect human CEM cells from HIV-1 infection is measured as a screen for new compounds capable of inhibiting the HIV virus. Five concentrations of drug were tested on uninfected and infected cells and cell growth was measured using a soluble formazan assay. […] Compounds that provided at least 50% protection were retested. Compounds that provided at least 50% protection on retest were listed as moderately active. […]
recorded_metric: pIC50
In textbook form, pIC50 equals minus log to base ten of the concentration in mol/L.

In plain terms, `CC(C)OC(=S)SSSC(=S)OC(C)C` has a documented pIC50 of 4.72

Briefly, pIC50 measured for `O=C(O)/C(=C/c1ccccc1[N+](=O)[O-])c1cccs1` : 3.34

Entry COc1ccc2c(c1)CCN1CCc3ccccc3CC21 (stereo not drawn) , pIC50 reported as 4.27

For this molecule ( `CCO/C(=C/C(=O)OC)NCCc1c[nH]c2ccccc12` ), measured pIC50 is 3.87

Sure, the documented pIC50 for `Cc1nc(-n2nc(-c3ccccc3)cc2-c2ccccc2)sc1C(=O)/C=C/c1cccc([N+](=O)[O-])c1` is 4.96

In plain terms, COc1ccc(C2Oc3c(cccc3OC)C=C2[N+](=O)[O-])cc1OC (stereo not drawn) has a documented pIC50 of 5.92

Briefly, pIC50 measured for `CO/C(=C/C(=O)c1ccccc1)C(=O)c1ccccc1` : 4.21
